Tested on: Staphylococcus aureus
ASSAY OVERVIEW: Antibacterial activity against Staphylococcus aureus ATCC 9144 incubated for 48 hrs and measured by broth microdilution assay
Format: functional
// NB: equality with 4 µg/mL counts as f; only MIC strictly below is t

NCCCN1C(=O)N(CCCN)C(=O)C(Cc2ccc3cc(Br)ccc3n2)(Cc2ccc3cc(Br)ccc3n2)C1=O.O=C(O)C(F)(F)F.O=C(O)C(F)(F)F f
N=C(N)NCCCN1C(=O)N(CCCNC(=N)N)C(=O)C(Cc2ccc(C(F)(F)F)cc2)(Cc2ccc(C(F)(F)F)cc2)C1=O.O=C(O)C(F)(F)F.O=C(O)C(F)(F)F f
NCCCN1C(=O)N(CCCN)C(=O)C(Cc2ccc(C(F)(F)F)cc2)(Cc2ccc(C(F)(F)F)cc2)C1=O.O=C(O)C(F)(F)F.O=C(O)C(F)(F)F f
NCCCN1C(=O)N(CCCN)C(=O)C(Cc2ccc(Br)c3ccccc23)(Cc2ccc(Br)c3ccccc23)C1=O.O=C(O)C(F)(F)F.O=C(O)C(F)(F)F t
NCCCCN1C(=O)N(CCCCN)C(=O)C(Cc2cc(Br)cc(Br)c2)(C2CCCC2)C1=O.O=C(O)C(F)(F)F.O=C(O)C(F)(F)F f

Here's an entry: `CCCCCCC1(CCCCCC)C(=O)N(CCCCNC(=N)N)C(=O)N(CCCCNC(=N)N)C1=O.O=C(O)C(F)(F)F.O=C(O)C(F)(F)F` . Is its MIC below 4 µg/mL? t

Here's an entry: `NCCCCN1C(=O)N(CCCCN)C(=O)C(Cc2ccc(Br)c3ccccc23)(Cc2ccc(Br)c3ccccc23)C1=O.O=C(O)C(F)(F)F.O=C(O)C(F)(F)F` . Is its MIC below 4 µg/mL? t

Here's an entry: `N=C(N)NCCCN1C(=O)N(CCCNC(=N)N)C(=O)C(Cc2ccc(Br)c(Cl)c2)(Cc2ccc(Br)c(Cl)c2)C1=O.O=C(O)C(F)(F)F.O=C(O)C(F)(F)F` . Is its MIC below 4 µg/mL? t
